system: ACHN (Renal cancer); experiment: NCI-60 screen (SRB, 48 h); settings: Homo sapiens, read-out: LC50
Sorting guide: entries reporting CC50 beneath 6 µM go in the 1.0 pile, the rest go in the 0.0 pile.

The examples below pair each entry with its known result.
compound | groupLabel
C=C(C)C1CCC2(CO)CCC3(C)C(CCC4C5(C)CCCNC(C)(C)C5CCC43C)C12 (stereo not shown) | 1.0
C=C(C)[C@@H]1CC[C@]2(C)[C@H](CC=C3[C@@H]4[C@@H](C)[C@H](C)CC[C@]4(CO)CC[C@]32C)[C@@]1(C)CCCN | 0.0
Cc1ccc(S(=O)(=O)OC[C@]23CCC(C)(C)C[C@H]2C2=CC[C@@H]4[C@@]5(C)CCCNC(C)(C)[C@@H]5CC[C@@]4(C)[C@]2(C)CC3)cc1 | 1.0
CC1(C)CC[C@]23CC[C@]4(C)[C@H](CC[C@@H]5[C@@]6(C)CCCNC(C)(C)[C@@H]6CC[C@]54C)[C@H]2[C@H]1OC3 | 1.0
CC(C)=C1CCC=C2CC[C@]3(C)[C@H](CC[C@@H]4[C@@]5(C)CCCNC(C)(C)[C@@H]5CC[C@]43C)[C@H]21 | 1.0

Q: Take the compound C[C@H]1[C@H](C)CC[C@]2(CO)CC[C@]3(C)C(=CC[C@@H]4[C@@]5(C)CCCNC(C)(C)[C@@H]5CC[C@]43C)[C@H]12 and say whether its CC50 is less than 6 µM.
A: 1.0

Q: Request: CC1(C)NCCC[C@]2(C)[C@H]3C=CC4=C5C[C@@](C)(CO)CC[C@]5(C)CC[C@@]4(C)[C@]3(C)CC[C@@H]12
A: 0.0

Q: Request: Cc1ccc(S(=O)(=O)OC[C@@]2(C)CC[C@]3(C)CC[C@]4(C)C(=C3C2)C=C[C@@H]2[C@@]3(C)CCCNC(C)(C)[C@@H]3CC[C@]24C)cc1
A: 1.0

Q: Request: C=C(C)[C@@H]1CC[C@]2(C)[C@H](C=CC3=C4C[C@@](C)(CO)CC[C@]4(C)CC[C@]32C)[C@@]1(C)CCCN
A: 1.0

Q: Request: CC1(C)CC[C@]2(CO)CC[C@]3(C)C(=CC[C@@H]4[C@@]5(C)CCCNC(C)(C)[C@@H]5CC[C@]43C)[C@@H]2C1
A: 0.0

====

system: MALME-3M (Melanoma); assay: NCI-60 screen (SRB, 48 h); conditions: Homo sapiens, read-out: LC50
readoutType: CC50
The answer should read as a number with its unit following.

Use these answered entries as a reference point.
compound | CC50
C=C(C)[C@@H]1CC[C@]2(C)[C@H](CC=C3[C@@H]4[C@@H](C)[C@H](C)CC[C@]4(CO)CC[C@]32C)[C@@]1(C)CCCN [Compound 19] | 2.74 µM
CC1(C)NCCC[C@]2(C)[C@H]3C=CC4=C5C[C@@](C)(CO)CC[C@]5(C)CC[C@@]4(C)[C@]3(C)CC[C@@H]12 [Compound 6, azepano-glycyrrhetol-diene] | 32.5 µM

Then this compound:
Q: Item CC(C)=C1CCC=C2CC[C@]3(C)[C@H](CC[C@@H]4[C@@]5(C)CCCNC(C)(C)[C@@H]5CC[C@]43C)[C@H]21 [Compound 9] has what recorded CC50?
A: 6.84 µM
